- assayedSystem: CSK (human) (UniProt P41240)
- Sequence (P41240 whole entry, looked up): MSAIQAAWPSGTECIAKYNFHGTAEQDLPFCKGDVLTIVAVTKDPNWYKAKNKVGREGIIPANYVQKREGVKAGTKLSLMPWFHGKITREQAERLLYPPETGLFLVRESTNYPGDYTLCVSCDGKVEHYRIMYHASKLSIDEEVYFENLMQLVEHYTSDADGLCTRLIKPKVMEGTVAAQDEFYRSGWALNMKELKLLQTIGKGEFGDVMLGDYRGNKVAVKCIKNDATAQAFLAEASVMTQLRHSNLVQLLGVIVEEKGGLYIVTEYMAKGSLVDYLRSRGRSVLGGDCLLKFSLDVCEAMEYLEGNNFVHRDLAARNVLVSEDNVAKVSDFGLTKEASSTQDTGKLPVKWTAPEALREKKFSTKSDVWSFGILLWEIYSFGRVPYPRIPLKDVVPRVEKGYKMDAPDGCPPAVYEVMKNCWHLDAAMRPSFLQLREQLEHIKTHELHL
- methodSummary: radiometric filter-binding kinase assay, Kinase HotSpot
- runConditions: compound 0.5 µM; ATP 10 µM
Listing: residual activity of selected compounds
readoutName: residual activity (%)

{"columns": ["smilesStructure", "observed"],
 "data": [
  ["COc1ccc(C(=O)Nc2sc3c(c2C(N)=O)CCCC3)cc1OC", 98.8],
  ["CC(C)(C)c1cc(C=C(C#N)C#N)cc(Br)c1O", 106],
  ["Ic1cccc(CSc2nnc(-c3ccncc3)o2)c1", 101],
  ["CCCCc1c(-c2ccc(OC)cc2)[nH]c2nccnc12", 87],
  ["COc1cc(Nc2c(C#N)cnc3cc(OCCCN4CCN(C)CC4)c(OC)cc23)c(Cl)cc1Cl", 12.3]
]}

====

- assayedSystem: UniProt:O95819
- Sequence (O95819 whole entry, looked up): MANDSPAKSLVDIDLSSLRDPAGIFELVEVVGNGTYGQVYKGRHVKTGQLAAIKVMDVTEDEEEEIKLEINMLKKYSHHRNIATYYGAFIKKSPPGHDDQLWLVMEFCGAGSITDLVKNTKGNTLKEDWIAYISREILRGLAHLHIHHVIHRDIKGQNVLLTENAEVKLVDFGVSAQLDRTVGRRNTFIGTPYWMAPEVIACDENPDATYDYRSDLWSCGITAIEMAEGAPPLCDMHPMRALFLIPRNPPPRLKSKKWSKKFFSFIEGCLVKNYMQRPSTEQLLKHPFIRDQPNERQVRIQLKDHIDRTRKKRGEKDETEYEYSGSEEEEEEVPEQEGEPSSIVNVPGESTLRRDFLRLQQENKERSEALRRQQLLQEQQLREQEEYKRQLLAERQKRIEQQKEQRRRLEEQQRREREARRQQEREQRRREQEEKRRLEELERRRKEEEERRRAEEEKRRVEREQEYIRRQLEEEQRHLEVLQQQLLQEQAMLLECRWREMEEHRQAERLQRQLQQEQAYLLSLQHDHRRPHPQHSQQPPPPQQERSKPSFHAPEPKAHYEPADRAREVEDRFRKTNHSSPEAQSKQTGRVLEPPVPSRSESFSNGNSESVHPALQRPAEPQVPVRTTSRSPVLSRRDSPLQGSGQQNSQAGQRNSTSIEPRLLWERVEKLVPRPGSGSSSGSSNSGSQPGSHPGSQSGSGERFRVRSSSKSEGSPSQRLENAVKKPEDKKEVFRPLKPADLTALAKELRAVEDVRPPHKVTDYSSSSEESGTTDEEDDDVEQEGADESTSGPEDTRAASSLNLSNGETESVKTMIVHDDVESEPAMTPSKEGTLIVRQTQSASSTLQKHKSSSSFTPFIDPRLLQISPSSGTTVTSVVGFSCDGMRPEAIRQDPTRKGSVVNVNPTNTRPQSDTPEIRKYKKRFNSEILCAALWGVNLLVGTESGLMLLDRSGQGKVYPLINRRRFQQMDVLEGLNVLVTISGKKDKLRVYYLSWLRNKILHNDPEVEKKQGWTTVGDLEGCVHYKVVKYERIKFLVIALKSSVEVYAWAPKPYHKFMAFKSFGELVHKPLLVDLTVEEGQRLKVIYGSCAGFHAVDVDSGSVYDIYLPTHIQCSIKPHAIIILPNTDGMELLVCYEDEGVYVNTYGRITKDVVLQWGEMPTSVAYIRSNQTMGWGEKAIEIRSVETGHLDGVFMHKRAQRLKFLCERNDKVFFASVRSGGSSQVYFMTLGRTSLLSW
- methodSummary: radiometric filter-binding kinase assay, Kinase HotSpot
- runConditions: compound 0.5 µM; ATP 10 µM
Listing: residual activity of selected compounds

{"columns": ["smilesStructure", "assayedSystem", "resultUnits", "residual activity"],
 "data": [
  ["C[C@@H]1CCN(C(=O)CC#N)C[C@@H]1N(C)c1ncnc2[nH]ccc12", "UniProt:O95819", "%", 101],
  ["CN(C)c1ccc(/C=C2\\C(=O)Nc3ccccc32)cc1", "UniProt:O95819", "%", 74.5],
  ["Ic1cccc(CSc2nnc(-c3ccncc3)o2)c1", "UniProt:O95819", "%", 97.4],
  ["COc1cc(Nc2c(C#N)cnc3cc(OCCCN4CCN(C)CC4)c(OC)cc23)c(Cl)cc1Cl", "UniProt:O95819", "%", 1.03],
  ["CS(=O)(=O)CCNCc1ccc(-c2ccc3ncnc(Nc4ccc(OCc5cccc(F)c5)c(Cl)c4)c3c2)o1", "UniProt:O95819", "%", 111]
]}

====

- assayedSystem: DYRK4 (human) (UniProt Q9NR20)
- Sequence (Q9NR20 whole entry, looked up): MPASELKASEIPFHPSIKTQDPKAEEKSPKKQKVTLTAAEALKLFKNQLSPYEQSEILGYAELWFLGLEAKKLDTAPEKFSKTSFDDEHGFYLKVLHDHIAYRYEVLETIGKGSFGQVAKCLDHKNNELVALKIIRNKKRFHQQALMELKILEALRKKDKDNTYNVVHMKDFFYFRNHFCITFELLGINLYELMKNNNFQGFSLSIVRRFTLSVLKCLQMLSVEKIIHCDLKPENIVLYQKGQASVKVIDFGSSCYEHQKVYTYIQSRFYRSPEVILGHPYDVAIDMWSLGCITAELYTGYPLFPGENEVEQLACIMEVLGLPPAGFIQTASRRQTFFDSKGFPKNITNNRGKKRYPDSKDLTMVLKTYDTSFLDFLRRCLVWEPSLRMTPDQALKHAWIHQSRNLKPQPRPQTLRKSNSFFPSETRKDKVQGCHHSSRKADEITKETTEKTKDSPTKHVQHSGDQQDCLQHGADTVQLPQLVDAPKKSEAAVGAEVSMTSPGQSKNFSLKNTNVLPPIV
- methodSummary: radiometric filter-binding kinase assay, Kinase HotSpot
- runConditions: compound 0.5 µM; ATP 10 µM
Listing: residual activity of selected molecules

{"columns": ["smilesStructure", "residual activity (%)"],
 "data": [
  ["COc1cc2ncnc(Nc3ccc(Oc4ccccc4)cc3)c2cc1OC", 97.3],
  ["CN(C)S(=O)(=O)c1ccc2c(c1)/C(=C/c1cc3c([nH]1)CCCC3)C(=O)N2", 98.2],
  ["CN(C)CCCn1cc(C2=C(c3c[nH]c4ccccc34)C(=O)NC2=O)c2ccccc21", 95],
  ["CO[C@@H]1[C@H](N(C)C(=O)c2ccccc2)C[C@H]2O[C@]1(C)n1c3ccccc3c3c4c(c5c6ccccc6n2c5c31)C(=O)NC4", 96.4],
  ["Cn1c2ccccc2c2c3c(c4c5ccccc5n(CCC#N)c4c21)CNC3=O", 95.7],
  ["CS(=O)(=O)CCNCc1ccc(-c2ccc3ncnc(Nc4ccc(OCc5cccc(F)c5)c(Cl)c4)c3c2)o1", 103],
  ["Cc1nc(-c2ccccc2)c(-c2ccncc2)o1", 91.2],
  ["COc1ccc(Cl)cc1NC(=O)Nc1cc(C)nc2ccccc12", 98.9],
  ["C[C@@H]1CCN(C(=O)CC#N)C[C@@H]1N(C)c1ncnc2[nH]ccc12", 97.2],
  ["N#C/C(=C\\c1ccc(O)c(O)c1)C(=O)NCc1ccccc1", 106],
  ["Cc1cccc(-c2nc(C(C)(C)C)[nH]c2-c2ccc3c(c2)OCO3)n1", 89.7]
]}
